Origin of measurements: ChEMBL document CHEMBL1125648

Recorded measurements of pIC50, one per entry
System: L1210
assay procedure: Growth inhibition of L1210 cells in culture
Assay type: functional, cell-based
condition label: Mus musculus
Hey, just a heads up that pIC50 is the negative log base 10 of the concentration in molar.

Sample records with pIC50:
molecule: C#CCN(Cc1ccc2nc(C)nc(S)c2c1)c1ccc(C(=O)NC(CCC(=O)O)C(=O)O)cc1 (stereo not given)
target desc: L1210
value: 5.10
--
molecule: C#CCN(Cc1ccc2ncnc(S)c2c1)c1ccc(C(=O)NC(CCC(=O)O)C(=O)O)cc1 (stereo not given)
target desc: L1210
value: 5.13
--
molecule: CCN(Cc1ccc2ncnc(S)c2c1)c1ccc(C(=O)NC(CCC(=O)O)C(=O)O)cc1 (stereo not given)
target desc: L1210
value: 4.51
--
molecule: C#CCN(Cc1ccc2nc(N)nc(S)c2c1)c1ccc(C(=O)NC(CCC(=O)O)C(=O)O)cc1 (stereo not given)
target desc: L1210
value: 4.74

Shifting focus to the molecule that follows.
Data point: CCN(Cc1ccc2ncnc(SC)c2c1)c1ccc(C(=O)NC(CCC(=O)O)C(=O)O)cc1 (stereo not given) ; pIC50 = 4.82
